Tested on: 845751-090-R-J2-PDC tumor spheroid viability
Test: Anticancer human tumor 845751-090-R-J2-PDC patient-derived head and neck squamous carcinoma cell line growth inhibition [IpAb]
Details: second compound 10 µM; first compound 3.16 µM; hits give low values; spheroids with HUVEC and MSC
Method: Combinatorial screen of targeted agents with ipatasertib and abemaciclib in multi-cell type tumor spheroids […] Compounds. […] If the clinical Cmax for an agent had not been determined, the highest concentration tested was 10 microM. NCI60 Cell Culture. […] The optimal seeding densities for each of the cell lines at each time point assessed were determined prior to performing the concentration response studies. […]
PARAMETER: viability, T/C (%)

1. CCCS(=O)(=O)Nc1ccc(F)c(C(=O)c2c[nH]c3ncc(-c4ccc(Cl)cc4)cc23)c1F + CC(C)NCC(C(=O)N1CCN(c2ncnc3c2C(C)CC3O)CC1)c1ccc(Cl)cc1: 15.7
2. Cn1ncc(Cl)c1-c1cc(C(=O)NC(CN)Cc2cccc(F)c2)sc1Cl (configuration not stated) + CC(C)NCC(C(=O)N1CCN(c2ncnc3c2C(C)CC3O)CC1)c1ccc(Cl)cc1: 7.33
3. Cc1nc(NC(=O)N2CCCC2C(N)=O)sc1-c1ccnc(C(C)(C)C(F)(F)F)c1 (configuration not stated) + CC(C)NCC(C(=O)N1CCN(c2ncnc3c2C(C)CC3O)CC1)c1ccc(Cl)cc1: 9.58
4. C=CCn1c(=O)c2cnc(Nc3ccc(N4CCN(C)CC4)cc3)nc2n1-c1cccc(C(C)(C)O)n1 + CC(C)NCC(C(=O)N1CCN(c2ncnc3c2C(C)CC3O)CC1)c1ccc(Cl)cc1: 13.9
5. C=CC(=O)N1CCN(c2nc(=O)n(-c3c(C)ccnc3C(C)C)c3nc(-c4c(O)cccc4F)c(F)cc23)C(C)C1 (configuration not stated) + CC(C)NCC(C(=O)N1CCN(c2ncnc3c2C(C)CC3O)CC1)c1ccc(Cl)cc1: 8.32
6. CC1(C)CCC(CN2CCN(c3ccc(C(=O)NS(=O)(=O)c4ccc(NCC5CCOCC5)c([N+](=O)[O-])c4)c(Oc4cnc5[nH]ccc5c4)c3)CC2)=C(c2ccc(Cl)cc2)C1 + CC(C)NCC(C(=O)N1CCN(c2ncnc3c2C(C)CC3O)CC1)c1ccc(Cl)cc1: 22
7. Cn1nccc1Nc1nccc(-c2ccn(C(CO)c3ccc(Cl)c(F)c3)c(=O)c2)n1 (configuration not stated) + CC(C)NCC(C(=O)N1CCN(c2ncnc3c2C(C)CC3O)CC1)c1ccc(Cl)cc1: 3.44

* * *

Tested on: 845751-090-R-J2-PDC tumor spheroid viability
Assay: Anticancer human tumor 845751-090-R-J2-PDC cell line growth inhibition [IpAb]
Settings: second compound 0.1 µM; first compound 3.16 µM; hits give low values; spheroids with HUVEC and MSC
Recorded viability, T/C values for a group of compounds are listed next.
PARAMETER: viability, T/C (%)

1) Cn1nccc1Nc1nccc(-c2ccn(C(CO)c3ccc(Cl)c(F)c3)c(=O)c2)n1 (stereo not drawn) + CC(C)NCC(C(=O)N1CCN(c2ncnc3c2C(C)CC3O)CC1)c1ccc(Cl)cc1: 44.1
2) C=CCn1c(=O)c2cnc(Nc3ccc(N4CCN(C)CC4)cc3)nc2n1-c1cccc(C(C)(C)O)n1 + CC(C)NCC(C(=O)N1CCN(c2ncnc3c2C(C)CC3O)CC1)c1ccc(Cl)cc1: 35.8
3) Cn1ncc(Cl)c1-c1cc(C(=O)NC(CN)Cc2cccc(F)c2)sc1Cl (stereo not drawn) + CC(C)NCC(C(=O)N1CCN(c2ncnc3c2C(C)CC3O)CC1)c1ccc(Cl)cc1: 12.1

* * *

Tested on: 845751-090-R-J2-PDC tumor spheroid viability
Assay: Anticancer human tumor 845751-090-R-J2-PDC cell line growth inhibition [IpAb];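 further: spheroids exposed to compounds for 7 days before readout; CTG3D luminescence normalised so that 100% = DMSO vehicle control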
Settings: second compound 0.316 µM; first compound 0.001 µM; hits give low values; spheroids with HUVEC and MSC
PARAMETER: viability, T/C (%)

1. Cn1ncnc1[C@H]1c2n[nH]c(=O)c3cc(F)cc(c23)N[C@@H]1c1ccc(F)cc1 + CC(C)NCC(C(=O)N1CCN(c2ncnc3c2C(C)CC3O)CC1)c1ccc(Cl)cc1: 25
2. CC(C)n1nc(-c2ccc3oc(N)nc3c2)c2c(N)ncnc21 + CCN1CCN(Cc2ccc(Nc3ncc(F)c(-c4cc(F)c5nc(C)n(C(C)C)c5c4)n3)nc2)CC1: 56.6
3. Cn1ncnc1[C@H]1c2n[nH]c(=O)c3cc(F)cc(c23)N[C@@H]1c1ccc(F)cc1 + CCN1CCN(Cc2ccc(Nc3ncc(F)c(-c4cc(F)c5nc(C)n(C(C)C)c5c4)n3)nc2)CC1: 69.4
4. CC(C)n1nc(-c2ccc3oc(N)nc3c2)c2c(N)ncnc21 + CC(C)NCC(C(=O)N1CCN(c2ncnc3c2C(C)CC3O)CC1)c1ccc(Cl)cc1: 27.3

* * *

Test system: 845751-090-R-J2-PDC tumor spheroid viability
Test: Anticancer human tumor 845751-090-R-J2-PDC cell line growth inhibition [IpAb];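 further: spheroids exposed to compounds for 7 days before readout; CTG3D luminescence normalised so that 100% = DMSO vehicle control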
Conditions: second compound 3.16 µM; first compound 1 µM; hits give low values; spheroids with HUVEC and MSC
// reported viability, T/C per item
PARAMETER: viability, T/C (%)

1) COc1c(OCCCN2CCOCC2)ccc2c3n(c(=NC(=O)c4cnc(N)nc4)nc12)CCN3 + CC(C)NCC(C(=O)N1CCN(c2ncnc3c2C(C)CC3O)CC1)c1ccc(Cl)cc1: 2.76
2) Cc1nc(NC(=O)N2CCCC2C(N)=O)sc1-c1ccnc(C(C)(C)C(F)(F)F)c1 (stereo not given) + CC(C)NCC(C(=O)N1CCN(c2ncnc3c2C(C)CC3O)CC1)c1ccc(Cl)cc1: 12.7
3) Cn1nccc1Nc1nccc(-c2ccn(C(CO)c3ccc(Cl)c(F)c3)c(=O)c2)n1 (stereo not given) + CC(C)NCC(C(=O)N1CCN(c2ncnc3c2C(C)CC3O)CC1)c1ccc(Cl)cc1: 8.53
4) Cn1ncc(Cl)c1-c1cc(C(=O)NC(CN)Cc2cccc(F)c2)sc1Cl (stereo not given) + CC(C)NCC(C(=O)N1CCN(c2ncnc3c2C(C)CC3O)CC1)c1ccc(Cl)cc1: 24.2
5) CCCS(=O)(=O)Nc1ccc(F)c(C(=O)c2c[nH]c3ncc(-c4ccc(Cl)cc4)cc23)c1F + CC(C)NCC(C(=O)N1CCN(c2ncnc3c2C(C)CC3O)CC1)c1ccc(Cl)cc1: 26.5

* * *

Test system: 845751-090-R-J2-PDC tumor spheroid viability
Test: Anticancer human tumor 845751-090-R-J2-PDC cell line growth inhibition [IpAb];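 further: spheroids exposed to compounds for 7 days before readout; CTG3D luminescence normalised so that 100% = DMSO vehicle control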
Settings: second compound 0.316 µM; first compound 10 µM; hits give low values; spheroids with HUVEC and MSC
Let's look at some compounds and their measured viability, T/C.
PARAMETER: viability, T/C (%)

1. CCCS(=O)(=O)Nc1ccc(F)c(C(=O)c2c[nH]c3ncc(-c4ccc(Cl)cc4)cc23)c1F + CC(C)NCC(C(=O)N1CCN(c2ncnc3c2C(C)CC3O)CC1)c1ccc(Cl)cc1: 38.8
2. CC1(C)CCC(CN2CCN(c3ccc(C(=O)NS(=O)(=O)c4ccc(NCC5CCOCC5)c([N+](=O)[O-])c4)c(Oc4cnc5[nH]ccc5c4)c3)CC2)=C(c2ccc(Cl)cc2)C1 + CC(C)NCC(C(=O)N1CCN(c2ncnc3c2C(C)CC3O)CC1)c1ccc(Cl)cc1: 14.4
3. C=CC(=O)N1CCN(c2nc(=O)n(-c3c(C)ccnc3C(C)C)c3nc(-c4c(O)cccc4F)c(F)cc23)C(C)C1 (stereo not given) + CCN1CCN(Cc2ccc(Nc3ncc(F)c(-c4cc(F)c5nc(C)n(C(C)C)c5c4)n3)nc2)CC1: 16.9
4. C=CC(=O)N1CCN(c2nc(=O)n(-c3c(C)ccnc3C(C)C)c3nc(-c4c(O)cccc4F)c(F)cc23)C(C)C1 (stereo not given) + CC(C)NCC(C(=O)N1CCN(c2ncnc3c2C(C)CC3O)CC1)c1ccc(Cl)cc1: 13.8
5. Cc1nc(NC(=O)N2CCCC2C(N)=O)sc1-c1ccnc(C(C)(C)C(F)(F)F)c1 (stereo not given) + CCN1CCN(Cc2ccc(Nc3ncc(F)c(-c4cc(F)c5nc(C)n(C(C)C)c5c4)n3)nc2)CC1: 12.4

* * *

System: 845751-090-R-J2-PDC tumor spheroid viability
Test: Anticancer human tumor 845751-090-R-J2-PDC cell line growth inhibition [IpAb];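 further: spheroids exposed to compounds for 7 days before readout; CTG3D luminescence normalised so that 100% = DMSO vehicle control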
Settings: second compound 0.316 µM; first compound 1 µM; hits give low values; spheroids with HUVEC and MSC
Checkbox rule: viability, T/C lower than 20% = satisfied; viability, T/C not lower than 20% = not satisfied.

1) Cn1ncc(Cl)c1-c1cc(C(=O)NC(CN)Cc2cccc(F)c2)sc1Cl (stereo unspecified) + CCN1CCN(Cc2ccc(Nc3ncc(F)c(-c4cc(F)c5nc(C)n(C(C)C)c5c4)n3)nc2)CC1: not satisfied
2) CCCS(=O)(=O)Nc1ccc(F)c(C(=O)c2c[nH]c3ncc(-c4ccc(Cl)cc4)cc23)c1F + CC(C)NCC(C(=O)N1CCN(c2ncnc3c2C(C)CC3O)CC1)c1ccc(Cl)cc1: not satisfied
3) Cc1nc(NC(=O)N2CCCC2C(N)=O)sc1-c1ccnc(C(C)(C)C(F)(F)F)c1 (stereo unspecified) + CCN1CCN(Cc2ccc(Nc3ncc(F)c(-c4cc(F)c5nc(C)n(C(C)C)c5c4)n3)nc2)CC1: not satisfied
4) C=CC(=O)N1CCN(c2nc(=O)n(-c3c(C)ccnc3C(C)C)c3nc(-c4c(O)cccc4F)c(F)cc23)C(C)C1 (stereo unspecified) + CC(C)NCC(C(=O)N1CCN(c2ncnc3c2C(C)CC3O)CC1)c1ccc(Cl)cc1: not satisfied
5) Cn1ncc(Cl)c1-c1cc(C(=O)NC(CN)Cc2cccc(F)c2)sc1Cl (stereo unspecified) + CC(C)NCC(C(=O)N1CCN(c2ncnc3c2C(C)CC3O)CC1)c1ccc(Cl)cc1: not satisfied
6) COc1c(OCCCN2CCOCC2)ccc2c3n(c(=NC(=O)c4cnc(N)nc4)nc12)CCN3 + CCN1CCN(Cc2ccc(Nc3ncc(F)c(-c4cc(F)c5nc(C)n(C(C)C)c5c4)n3)nc2)CC1: satisfied
